Data origin, for the record: patent US20170258948A1

Record form. Attribute: koff. Fill in for each entry.
Target: T1, human PD-L1 (Programmed Death Ligand-1), protein used in Biacore and ELISA (human, UniProt Q9NZQ7 19-239)
T1 construct: also called hPD-L1; CD274
T1 sequence (Q9NZQ7 19-239 limits assumed): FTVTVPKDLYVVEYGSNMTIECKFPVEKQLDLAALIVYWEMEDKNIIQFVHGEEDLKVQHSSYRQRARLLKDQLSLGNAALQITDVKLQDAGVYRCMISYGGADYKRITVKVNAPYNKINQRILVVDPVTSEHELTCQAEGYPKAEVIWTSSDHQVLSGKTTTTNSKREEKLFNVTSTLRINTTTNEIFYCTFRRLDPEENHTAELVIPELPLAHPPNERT
Assay: SPR (Biacore), human PD-L1
One number for each entry, in s⁻¹.

Some solved cases for reference:
{"columns": ["binder", "endpoint.unit", "koff"],
 "data": [
  ["ATI-964 (designed binder, 10Fn3 Adnectin; also called parent of ADX_5322_A02) MGVSDVPRDLEVVAATPTSLLISWSYDGSIERYYRITYGETGGNSPVQEFTVPPDQKTATISGLKPGVDYTITVYAVRLEEAHYYRESPISINYRTEIDKPSQHHHHHH", "s⁻¹", "7.7e-05"],
  ["ATI-967 (designed binder, 10Fn3 Adnectin; also called parent of ADX_5417_E01) MGVSDVPRDLEVVAATPTSLLISWQGQLSPSFYYRITYGETGGNSPVQEFTVPVASGTATISGLKPGVDYTITVYAVTSHGIYFYAPISINYRTEIDKPSQHHHHHH", "s⁻¹", "6.7e-05"]
]}

Next item in the queue.
Find the recorded koff belonging to ATI-968 (designed binder, 10Fn3 Adnectin; also called ADX_1760_C01) MGVSDVPRDLEVVAATPTSLLISWIAPFYNVIYYRITYGETGGNSPVQEFTVPGTGYTATISGLKPGVDYTITVYAVTDGASIASYAFPISINYRTEIDKPSQHHHHHH and report it. 0.00012
